molecular target: human dopamine transporter (hDAT) (Homo sapiens, UniProt Q01959); assay: hDAT inhibition, in vitro binding and functional studies
Sequence (Q01959 whole entry): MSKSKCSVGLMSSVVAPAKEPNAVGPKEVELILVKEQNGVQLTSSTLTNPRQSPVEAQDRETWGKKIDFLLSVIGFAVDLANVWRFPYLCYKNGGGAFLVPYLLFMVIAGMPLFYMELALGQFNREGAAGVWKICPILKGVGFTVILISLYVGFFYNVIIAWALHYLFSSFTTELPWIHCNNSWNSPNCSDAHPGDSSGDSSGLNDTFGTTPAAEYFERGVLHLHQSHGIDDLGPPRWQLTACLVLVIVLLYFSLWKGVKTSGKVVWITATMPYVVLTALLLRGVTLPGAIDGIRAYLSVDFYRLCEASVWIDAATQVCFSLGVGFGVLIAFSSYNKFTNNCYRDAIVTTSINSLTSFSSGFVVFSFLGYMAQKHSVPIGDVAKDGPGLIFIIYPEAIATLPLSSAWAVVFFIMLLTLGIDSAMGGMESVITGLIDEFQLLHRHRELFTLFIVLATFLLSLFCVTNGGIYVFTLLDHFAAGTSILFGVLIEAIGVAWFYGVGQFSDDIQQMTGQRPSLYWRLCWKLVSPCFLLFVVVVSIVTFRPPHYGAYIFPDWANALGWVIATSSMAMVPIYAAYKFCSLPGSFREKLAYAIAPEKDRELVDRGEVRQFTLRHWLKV
RESULT TYPE: IC50
Answer by giving the amount and then stating its unit.

Query string: What value of IC50 has been recorded for this entry: NC(=O)OC[C@H](N)Cc1ccccc1 [Solriamfetol, (R)-2-amino-3-phenylpropyl carbamate]
Result string: 3.21 µM

====

biological target: UniProt:P23975; experiment: hNET inhibition, in vitro binding and functional studies
Sequence (P23975 whole entry): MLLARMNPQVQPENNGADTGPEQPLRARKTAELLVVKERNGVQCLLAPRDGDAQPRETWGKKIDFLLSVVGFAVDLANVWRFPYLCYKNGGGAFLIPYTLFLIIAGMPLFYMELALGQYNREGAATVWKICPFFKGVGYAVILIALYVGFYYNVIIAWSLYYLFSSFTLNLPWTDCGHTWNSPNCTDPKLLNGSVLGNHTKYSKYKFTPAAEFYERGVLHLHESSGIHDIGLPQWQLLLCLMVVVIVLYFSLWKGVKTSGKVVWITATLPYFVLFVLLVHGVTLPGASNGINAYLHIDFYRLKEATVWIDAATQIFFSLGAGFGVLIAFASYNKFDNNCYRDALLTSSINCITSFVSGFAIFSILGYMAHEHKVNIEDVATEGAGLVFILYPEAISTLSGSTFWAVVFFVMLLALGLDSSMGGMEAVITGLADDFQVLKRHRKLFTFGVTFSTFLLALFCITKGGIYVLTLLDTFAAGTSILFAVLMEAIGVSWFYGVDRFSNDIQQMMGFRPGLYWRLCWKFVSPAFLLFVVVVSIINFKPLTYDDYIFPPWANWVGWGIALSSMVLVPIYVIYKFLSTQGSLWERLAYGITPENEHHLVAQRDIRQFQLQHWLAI
RESULT TYPE: pIC50
On this scale, pIC50 is minus log10 of a concentration expressed in M (mol/L).

Query string: State the recorded pIC50 for this entry: NC(=O)OC[C@H](N)Cc1ccccc1 [Solriamfetol, (R)-2-amino-3-phenylpropyl carbamate]
Result string: 4.84

All values here come from patent US20260256729A1.
